target: Transthyretin (Homo sapiens); assay: Stabilization of recombinant human wild type TTR expressed in Escherichia coli BL21 (DE3) assessed as inhibition of amyloid beta formation by measuring turbidity preincubated for 30 mins followed by lowering pH from 7.2 to 4.4 measured after 72 hrs by microplate spectrophotometric method
property-name: IC50 (nM)
API: value field is a number in nM; no unit string.

So what does the record say about IC50 for Cc1oc(/C=C/c2ccc(Cl)o2)cc1C(=O)O ?
2490

###

experiment: Cytotoxicity against human HepG2 cells assessed as decrease in cell viability after 72 hrs by resazurin reduction assay; type: toxicity, cell-based; settings: read-out: ID50
property-name: CC50 at 72 h (µM)
A number alone suffices; assume µM.

Solved entries:
Cc1c(C(=O)O)coc1/C=C/c1ccc(Cl)o1 : 181
O=C(O)c1ccc2nc(-c3cc(Cl)cc(Cl)c3)oc2c1 : 247
Cc1oc(/C=C/c2ccc(Cl)o2)cc1C(=O)O : 225

Proceeding to the next molecule to report its CC50 at 72 h.
Form field: reported CC50 at 72 h of Oc1c(Cl)cc(-c2cc(Cl)c(O)c(Cl)c2)cc1Cl
60
